In this section we review reported MIC values for a set of compounds.
- Tested on: Streptococcus pneumoniae 1/1
- experiment: MIC against Streptococcus pneumoniae 1/1
- Assay type: cell-based
- test context: Table 2; Streptococcus pneumoniae 1/1, trimethoprim- and penicillin-resistant, serotype 6; clinical isolate; read-out: MIC Sp1/1

{"columns": ["compound", "target", "MIC (µg/mL)"],
 "data": [
  ["CCOc1cc(Cc2cnc(N)nc2N)cc(OS(=O)(=O)N(C)C)c1-c1ccc(CN2CCOCC2)cc1 [Example 65-]", "Streptococcus pneumoniae 1/1", 2],
  ["CCOc1cc(Cc2cnc(N)nc2N)cc(OS(=O)(=O)C(C)CC)c1-c1ccc(O)cc1 (centres unmarked) [Example 15-g]", "Streptococcus pneumoniae 1/1", 0.5],
  ["CCOc1cc(Cc2cnc(N)nc2N)cc(OCC)c1-c1ccc(CN2CCOCC2)nc1 [Example 04-d]", "Streptococcus pneumoniae 1/1", 4],
  ["CCOc1cc(Cc2cnc(N)nc2N)cc(OS(=O)(=O)N2CCCCC2)c1-c1cccc(N)c1 [Example 19-b]", "Streptococcus pneumoniae 1/1", 0.5],
  ["CCOc1cc(Cc2cnc(N)nc2N)cc(OCC)c1-c1ccc(N)cc1 [Example 04-c]", "Streptococcus pneumoniae 1/1", 4],
  ["CCOc1cc(Cc2cnc(N)nc2N)cc(OCC)c1-c1cc(C)cc(N)c1 [Example 04-ae]", "Streptococcus pneumoniae 1/1", 8],
  ["CCOc1cc(Cc2cnc(N)nc2N)cc(OS(=O)(=O)N(C)C)c1-c1ccccc1 [Example 43-b]", "Streptococcus pneumoniae 1/1", 1],
  ["CCOc1cc(Cc2cnc(N)nc2N)cc(OCC)c1-c1ccc(CNCCF)cc1 [Example 04-ag]", "Streptococcus pneumoniae 1/1", 8],
  ["CCOc1cc(Cc2cnc(N)nc2N)cc(OS(=O)(=O)C2CCOCC2)c1-c1cccc(N)c1 [Example 41-c]", "Streptococcus pneumoniae 1/1", 0.5],
  ["CCOc1cc(Cc2cnc(N)nc2N)cc(OS(=O)(=O)N(C)C)c1-c1ccc2[nH]ccc2c1 [Example 43-d]", "Streptococcus pneumoniae 1/1", 1],
  ["CCOc1cc(Cc2cnc(N)nc2N)cc(OS(=O)(=O)C(C)CC)c1-c1ccc(OCCO)cc1 (centres unmarked) [Example 61-b]", "Streptococcus pneumoniae 1/1", 1],
  ["CCCOc1cc(Cc2cnc(N)nc2N)cc(OCC)c1-c1cccc(O)c1 [Example 53-]", "Streptococcus pneumoniae 1/1", 4],
  ["CCOc1cc(Cc2cnc(N)nc2N)cc(OCC)c1-c1cccnc1 [Example 02-p]", "Streptococcus pneumoniae 1/1", 4],
  ["CCOc1cc(Cc2cnc(N)nc2N)cc(OCC2CCC2)c1-c1ccc2c(c1)OCO2 [Example 10-a]", "Streptococcus pneumoniae 1/1", 8],
  ["CCOc1cc(Cc2cnc(N)nc2N)cc(OCC)c1-c1ccc(NC(=O)CN2CCOCC2)cc1 [Example 04-g]", "Streptococcus pneumoniae 1/1", 4],
  ["CCOc1cc(Cc2cnc(N)nc2N)cc(OCC2(COC)CC2)c1-c1cccc(N)c1 [Example 07-c]", "Streptococcus pneumoniae 1/1", 4],
  ["CCOc1cc(Cc2cnc(N)nc2N)cc(OS(=O)(=O)N(C)CC)c1-c1ccc(N)cc1 [Example 22-b]", "Streptococcus pneumoniae 1/1", 1]
]}

---

- System: Staphylococcus aureus 101
- experiment: MIC against Staphylococcus aureus 101
- Type: cell-based
- test context: Table 2; Staphylococcus aureus 101, MRSA- and trimethoprim-resistant; clinical isolate; read-out: MIC Sa101

{"columns": ["molecule", "MIC / µg/mL"],
 "data": [
  ["CCOc1cc(Cc2cnc(N)nc2N)cc(OCC)c1-c1cccc(OC)c1 [Example 05-a]", 8],
  ["CCOc1cc(Cc2cnc(N)nc2N)cc(OS(=O)(=O)N(C)CC)c1-c1ccc(O)cc1 [Example 20-g]", 2],
  ["CCOc1cc(Cc2cnc(N)nc2N)cc(OS(=O)(=O)C2CCC2)c1-c1ccc(CN2CCOCC2)c(N)c1 [Example 40-d]", 2],
  ["CCOc1cc(Cc2cnc(N)nc2N)cc(OCC2(CC#N)CC2)c1-c1ccc(OC)cc1 [Example 09-b]", 8]
]}

---

- target: purified DHFR of strain 157/4696 of Staphylococcus aureus (Staphylococcus aureus)
- Sequence (P13955 whole entry): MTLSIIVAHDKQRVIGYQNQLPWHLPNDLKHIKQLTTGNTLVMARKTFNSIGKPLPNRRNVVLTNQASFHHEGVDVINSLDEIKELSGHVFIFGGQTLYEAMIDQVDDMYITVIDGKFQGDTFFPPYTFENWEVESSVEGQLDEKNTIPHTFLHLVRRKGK
- experiment: biochemical
pIC50: −log10 of the molar value.
property name: pIC50

{"columns": ["structure notation", "target", "property name", "value observed"],
 "data": [
  ["CCOc1cc(Cc2cnc(N)nc2N)cc(OCC)c1-c1ccc(C)cc1", "purified DHFR of strain 157/4696 of Staphylococcus aureus (Staphylococcus aureus)", "pIC50", 5.96],
  ["CCOc1cc(Cc2cnc(N)nc2N)cc(OCC)c1-c1cccnc1", "purified DHFR of strain 157/4696 of Staphylococcus aureus (Staphylococcus aureus)", "pIC50", 5.66],
  ["CCOc1cc(Cc2cnc(N)nc2N)cc(OS(=O)(=O)CC2CC2)c1-c1cccc(N)c1", "purified DHFR of strain 157/4696 of Staphylococcus aureus (Staphylococcus aureus)", "pIC50", 6.80],
  ["CCOc1cc(Cc2cnc(N)nc2N)cc(OCC2CC2)c1-c1ccc(OCC#N)cc1", "purified DHFR of strain 157/4696 of Staphylococcus aureus (Staphylococcus aureus)", "pIC50", 5.74],
  ["CCOc1cc(Cc2cnc(N)nc2N)cc(OCC)c1-c1ccc(CN2CCOCC2)c(F)c1", "purified DHFR of strain 157/4696 of Staphylococcus aureus (Staphylococcus aureus)", "pIC50", 5.42],
  ["CCOc1cc(Cc2cnc(N)nc2N)cc(OCC)c1-c1cccc(N)c1", "purified DHFR of strain 157/4696 of Staphylococcus aureus (Staphylococcus aureus)", "pIC50", 6.12],
  ["CCOc1cc(Cc2cnc(N)nc2N)cc(OS(=O)(=O)N2CCCC2)c1-c1ccc(N)cc1", "purified DHFR of strain 157/4696 of Staphylococcus aureus (Staphylococcus aureus)", "pIC50", 6.85],
  ["CCOc1cc(Cc2cnc(N)nc2N)cc(OCC(C)(C)COC)c1-c1ccc(O)cc1", "purified DHFR of strain 157/4696 of Staphylococcus aureus (Staphylococcus aureus)", "pIC50", 5.77]
]}

---

Entries and their MIC
- Tested on: Staphylococcus aureus 101
- experiment: MIC against Staphylococcus aureus 101
- Format: cell-based
- test context: Table 2; Staphylococcus aureus 101, MRSA- and trimethoprim-resistant; clinical isolate; read-out: MIC Sa101

{"columns": ["molecule", "MIC [µg/mL]"],
 "data": [
  ["CCOc1cc(Cc2cnc(N)nc2N)cc(OS(=O)(=O)CC)c1-c1ccc(OC)cc1 [Example 16-b]", 2],
  ["CCOc1cc(Cc2cnc(N)nc2N)cc(OS(=O)(=O)C(C)C)c1-c1ccc(CN(C)C)c(N)c1 [Example 33-f]", 2],
  ["CCOc1cc(Cc2cnc(N)nc2N)cc(OS(=O)(=O)C(C)C)c1-c1ccc(C)nc1 [Example 33-g]", 4],
  ["CCOc1cc(Cc2cnc(N)nc2N)cc(OS(=O)(=O)CC(C)C)c1-c1ccc(OCCOC)cc1 [Example 63-]", 4],
  ["CCOc1cc(Cc2cnc(N)nc2N)cc(OS(=O)(=O)N2CCCC2)c1-c1ccc(NC)cc1 [Example 26-e]", 1],
  ["CCOc1cc(Cc2cnc(N)nc2N)cc(OCC)c1-c1ccc(NC(=O)CN2CCOCC2)cc1 [Example 04-g]", 8],
  ["CCCS(=O)(=O)Oc1cc(Cc2cnc(N)nc2N)cc(OCC)c1-c1cccc(N)c1 [Example 14-d]", 2],
  ["CCOc1cc(Cc2cnc(N)nc2N)cc(OS(=O)(=O)CC(C)(C)C)c1-c1ccc(NCCO)cc1 [Example 37-d]", 8]
]}

---

- target: purified DHFR of strain 157/4696 of Staphylococcus aureus (Staphylococcus aureus)
- experiment: biochemical
pIC50: −log10 of the molar value.
Label Criterion met when pIC50 >= 6; otherwise Criterion not met.

{"columns": ["molecule", "group"],
 "data": [
  ["CCOc1cc(Cc2cnc(N)nc2N)cc(OS(=O)(=O)C(C)CC)c1-c1ccc(N)cc1 (centres unmarked) [Example 35a]", "Criterion met"],
  ["CCOc1cc(Cc2cnc(N)nc2N)cc(OS(=O)(=O)N(C)C(C)C)c1-c1ccc(O)cc1", "Criterion met"],
  ["CCOc1cc(Cc2cnc(N)nc2N)cc(OS(=O)(=O)N2CCOCC2)c1-c1ccc(NC)cc1 [Example 26c]", "Criterion met"],
  ["CCOc1cc(Cc2cnc(N)nc2N)cc(OS(=O)(=O)CC2CC2)c1-c1ccc(N)c(C)c1", "Criterion met"],
  ["CCOc1cc(Cc2cnc(N)nc2N)cc(OC2CCC2)c1-c1ccc(O)cc1", "Criterion not met"],
  ["CCOc1cc(Cc2cnc(N)nc2N)cc(OCC)c1-c1ccc(N)nc1", "Criterion not met"],
  ["CCOc1cc(Cc2cnc(N)nc2N)cc(OS(=O)(=O)C(C)C)c1-c1ccc(O)cc1", "Criterion met"],
  ["CCOc1cc(Cc2cnc(N)nc2N)cc(OCC)c1-c1ccc(OS(C)(=O)=O)cc1", "Criterion not met"],
  ["CCOc1cc(Cc2cnc(N)nc2N)cc(OC2CCCC2)c1-c1ccc2c(c1)OCO2", "Criterion not met"]
]}
